TARGET OR TEST SYSTEM: rat-alpha 7-nAChR (Rattus norvegicus)
Construct: expressed in transfected cells
Sequence (Q05941 23-502): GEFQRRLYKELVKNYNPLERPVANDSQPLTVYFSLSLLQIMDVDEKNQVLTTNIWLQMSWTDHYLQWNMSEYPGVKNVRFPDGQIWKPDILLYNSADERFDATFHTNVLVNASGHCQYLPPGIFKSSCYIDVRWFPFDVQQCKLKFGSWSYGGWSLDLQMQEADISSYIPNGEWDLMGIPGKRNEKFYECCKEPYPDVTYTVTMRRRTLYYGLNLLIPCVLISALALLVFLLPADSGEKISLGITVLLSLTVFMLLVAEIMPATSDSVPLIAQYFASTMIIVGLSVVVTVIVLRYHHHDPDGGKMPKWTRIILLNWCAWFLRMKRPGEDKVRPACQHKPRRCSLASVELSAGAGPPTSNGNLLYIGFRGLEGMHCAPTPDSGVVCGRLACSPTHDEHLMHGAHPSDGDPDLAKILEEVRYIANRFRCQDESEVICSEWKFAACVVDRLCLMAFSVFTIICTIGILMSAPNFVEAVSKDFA
RUN DESCRIPTION: functional FLIPR assay, GH4C1 cells stably expressing alpha7 nAChR (intracellular calcium)
Assay type: cell-based
CONDITION LABEL: alpha7 nAChR stably expressed in GH4C1 cells; agonist concentration range 0.001 to 30 microM
MEASURED ENDPOINT: EC50
A complete answer gives the number followed by the unit.

// query Could you share which EC50 value was measured for C[N+]1(C)CCN(c2ccccc2)CC1 [DMPP] ?
// result 980 nM

---

RUN DESCRIPTION: hygroscopicity / Dynamic Vapor Sorption (DVS) of hydrochloride salt crystal forms
Type: physicochemical
CONDITION LABEL: hydrochloride salt of Example 4, result in words
Experimental: Differential scanning calorimetry data were collected for each solid form achieved using a DSC (TA instruments, model Q1000) under the following parameters: 50 mL/min purge gas (N2); scan range 40 to 200° C., scan rate 10° C./min. Thermogravimetric analysis data were collected using a TGA instruments (Mettler Toledo, model TGA/SDTA 851e) under the following parameters: 40 ml/min purge gas (N2); scan range 30 to 250° C., scan rate 10° C./min. […]
MEASURED ENDPOINT: Hygroscopicity

1. COc1ccc(-c2cc(NC(=O)CCCCN3CCCN(C(C)=O)CC3)[nH]n2)cc1 [Crystal Form V]; Hygroscopic
2. COc1ccc(-c2cc(NC(=O)CCCCN3CCCN(C(C)=O)CC3)[nH]n2)cc1 [Crystal Form III]; Hygroscopic
